Endpoint: pIC50. System: UniProt:P56817. Items follow.
Sequence (P56817 22-501 limits assumed): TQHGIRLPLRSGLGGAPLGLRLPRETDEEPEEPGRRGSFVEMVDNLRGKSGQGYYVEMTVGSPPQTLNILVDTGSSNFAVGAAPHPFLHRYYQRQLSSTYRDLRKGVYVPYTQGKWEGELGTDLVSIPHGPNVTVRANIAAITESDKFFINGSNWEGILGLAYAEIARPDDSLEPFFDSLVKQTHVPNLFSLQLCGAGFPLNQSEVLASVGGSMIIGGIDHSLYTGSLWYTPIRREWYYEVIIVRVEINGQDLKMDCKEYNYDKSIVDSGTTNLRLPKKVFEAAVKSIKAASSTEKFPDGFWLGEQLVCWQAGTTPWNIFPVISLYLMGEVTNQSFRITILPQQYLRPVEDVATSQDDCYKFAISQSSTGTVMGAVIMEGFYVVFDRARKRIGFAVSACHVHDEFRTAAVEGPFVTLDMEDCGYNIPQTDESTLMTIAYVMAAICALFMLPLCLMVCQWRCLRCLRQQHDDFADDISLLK
Lab note — pIC50 values are minus log10 of concentrations in M.

Please review the entries below; each comes with its answer.
Query: Quick check: pIC50 of CCCCCC1Cc2c(cc(CC=C(C)C)c(O)c2C(=O)O)O1 (racemic) [Compound 1, (±)-Chevalieric acid] ?
Response: 4.00

Query: Similarly, `CCCCCCCc1c(O)cc(CC=C(C)C)c(O)c1C=O` ?
Response: 4.39

Query: Similarly, CCCCC/C=C/c1c(O)cc(CC=C(C)C)c(O)c1C=O [Compound 8, tetrahydroauroglaucin] ?
Response: 4.44

Okay, next one:
Query: Quick check: pIC50 of C/C=C/C=C/CCc1c(O)cc(CC=C(C)C)c(O)c1C=O [Compound 11, isodihydroauroglaucin] ?
Response: 4.46
